- target-of-assay: CXCR2 (Homo sapiens, UniProt P25025)
- Construct: expressed in transfected cells
- Sequence (P25025 whole entry): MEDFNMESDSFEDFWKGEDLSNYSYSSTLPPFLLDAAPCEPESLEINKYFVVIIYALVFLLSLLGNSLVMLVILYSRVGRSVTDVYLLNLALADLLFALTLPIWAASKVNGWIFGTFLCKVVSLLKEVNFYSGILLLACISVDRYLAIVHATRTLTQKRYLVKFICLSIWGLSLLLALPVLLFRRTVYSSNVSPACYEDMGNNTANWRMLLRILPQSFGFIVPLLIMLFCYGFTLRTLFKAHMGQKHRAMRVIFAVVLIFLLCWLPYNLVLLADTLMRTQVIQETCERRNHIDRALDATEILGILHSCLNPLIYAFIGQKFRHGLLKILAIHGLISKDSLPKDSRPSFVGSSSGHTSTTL
- procedure-text: NanoBRET-based G protein activation inhibition assay (REGA-SIGN Gαi1 dissociation) in HEK293A.CXCR2 cells
- Assay type: cell-based
- test-conditions: CXCL5 at EC80; normalized to Imax of navarixin = 100%; n = 3
readout: Imax Gαi1 (maximum observed inhibitory effect)

Task: Specify Imax Gαi1 (maximum observed inhibitory effect) for CC(CO)Nc1nc(SCc2cccc(F)c2F)nc2cnccc12 (centres unmarked) [MVH-3] and stop.
Result: 93.7 ± 5.53%

Task: Retrieve Imax Gαi1 (maximum observed inhibitory effect) measured for CC(CO)Nc1nc(SCc2cccc(F)c2F)nc2ncsc12 (centres unmarked) [MVH-22] and print it.
Result: <50%

Task: Please report Imax Gαi1 (maximum observed inhibitory effect) for the following molecule: CC(CO)Nc1nc(SCc2cccc(F)c2F)nc2oncc12 (centres unmarked) [MVH-24]
Result: 98.52 ± 2.04%

Task: Give Imax Gαi1 (maximum observed inhibitory effect) for C[C@H](CO)Nc1nc(SCc2cccc(Cl)c2F)nc2[nH]c(=O)sc12 [AZ10397767, reference compound]
Result: 95.7%

Task: Answer with the recorded Imax Gαi1 (maximum observed inhibitory effect) for the molecule listed here: CC(CO)Nc1nc(SCc2cccc(F)c2F)nc2nc(N)sc12 (centres unmarked) [MVH-23]
Result: 94.29 ± 2.32%

Task: Supply reported Imax Gαi1 (maximum observed inhibitory effect) belonging to this molecule: CC(CCO)Nc1nc(SCc2cccc(F)c2F)nc2[nH]nnc12 (centres unmarked) [MVH-33]
Result: 100%

Task: Given CCCC(C)CSc1nc(NC(C)CO)c2nn[nH]c2n1 (centres unmarked) [MVH-82] , respond with its Imax Gαi1 (maximum observed inhibitory effect).
Result: <50%

Task: Tell me measured Imax Gαi1 (maximum observed inhibitory effect) for CC(CO)Nc1nc(SCc2cccc(F)c2F)nc2[nH]cnc12 (centres unmarked) [MVH-15] please.
Result: <50%

----------
- target-of-assay: CXCR2 (Homo sapiens, UniProt P25025)
- Construct: expressed in transfected cells
- procedure-text: NanoBRET-based G protein activation inhibition assay (REGA-SIGN Gαi1 dissociation) in HEK293A.CXCR2 cells
- Type: cell-based
- test-conditions: CXCL3 at EC80; mean, n = 3
readout: IC50

Task: Provide measured IC50 value, entry: CC(CO)Nc1nc(SCc2cccc(F)c2F)nc2cnccc12 (stereo not drawn) [MVH-3]
Result: > 15 µM

Task: Entry CC(CO)Nc1nc(SCc2cccc(F)c2F)nc2ncsc12 (stereo not drawn) [MVH-22] needs its IC50 filled in; supply it.
Result: > 15 µM

Task: Give the value of IC50 reported for the following: CC(CO)Nc1nc(SCc2cccc(F)c2F)nc2oncc12 (stereo not drawn) [MVH-24]
Result: 14.8 µM

Task: Could you please provide reported IC50 for CC(CO)Nc1nc(SCc2cccc(F)c2F)nc2[nH]cnc12 (stereo not drawn) [MVH-15] ? Thanks!
Result: > 15 µM

Task: Indicate the recorded IC50 value for this compound: CC(CCO)Nc1nc(SCc2cccc(F)c2F)nc2[nH]nnc12 (stereo not drawn) [MVH-33]
Result: > 15 µM

Task: Supply reported IC50 belonging to this compound: CCCC(C)CSc1nc(NC(C)CO)c2nn[nH]c2n1 (stereo not drawn) [MVH-82]
Result: > 15 µM

----------
- target-of-assay: CXCR2 (Homo sapiens, UniProt P25025)
- Construct: expressed in transfected cells
- procedure-text: NanoBRET-based G protein activation inhibition assay (REGA-SIGN Gαi1 dissociation) in HEK293A.CXCR2 cells
- Format: cell-based
- test-conditions: CXCL7 at EC80; normalized to Imax of navarixin = 100%; n = 3
Kindly state Imax Gαi1 (maximum observed inhibitory effect) for each of the entries shown.

Task: Name the recorded Imax Gαi1 (maximum observed inhibitory effect) of C[C@H](CO)Nc1nc(SCc2cccc(Cl)c2F)nc2[nH]c(=O)sc12 [AZ10397767, reference compound] , assay system CXCR2 (Homo sapiens, UniProt P25025).
Result: 100%

Task: Give Imax Gαi1 (maximum observed inhibitory effect) only, for CCCC(C)CSc1nc(NC(C)CO)c2nn[nH]c2n1 (stereo not shown) [MVH-82] , using CXCR2 (Homo sapiens, UniProt P25025) data.
Result: <50%

Task: Enter Imax Gαi1 (maximum observed inhibitory effect) (test system CXCR2 (Homo sapiens, UniProt P25025)) for CC(CO)Nc1nc(SCc2cccc(F)c2F)nc2oncc12 (stereo not shown) [MVH-24]
Result: 94.94 ± 3.57%

Task: Check CXCR2 (Homo sapiens, UniProt P25025) data and give Imax Gαi1 (maximum observed inhibitory effect) for CC(CO)Nc1nc(SCc2cccc(F)c2F)nc2[nH]cnc12 (stereo not shown) [MVH-15] .
Result: <50%

Task: State Imax Gαi1 (maximum observed inhibitory effect) (CXCR2 (Homo sapiens, UniProt P25025)) of CC(CO)Nc1nc(SCc2cccc(F)c2F)nc2ncsc12 (stereo not shown) [MVH-22] .
Result: <50%

Task: Give CXCR2 (Homo sapiens, UniProt P25025) Imax Gαi1 (maximum observed inhibitory effect) for the following compound: CC(CO)Nc1nc(SCc2cccc(F)c2F)nc2nc(N)sc12 (stereo not shown) [MVH-23]
Result: 100%

Task: Would you please give the reported Imax Gαi1 (maximum observed inhibitory effect) of CC(CCO)Nc1nc(SCc2cccc(F)c2F)nc2[nH]nnc12 (stereo not shown) [MVH-33] with CXCR2 (Homo sapiens, UniProt P25025)?
Result: 98.43 ± 2.62%

----------
- target-of-assay: CXCR2 (Homo sapiens, UniProt P25025)
- Construct: expressed in transfected cells
- procedure-text: NanoBRET β-arrestin1 recruitment inhibition assay (NanoLux) in HEK293A cells
- Assay type: cell-based
- test-conditions: CXCL8 at EC80; mean, n = 3; read-out: IC50 βarr1
pIC50: −log10 of the molar value.
Returns one of True or False; True when pIC50 is >= 6.

Task: Quick check: does CC(CO)Nc1nc(SCc2cccc(F)c2F)nc2ncsc12 (stereo not drawn) have pIC50 greater than or equal to 6?
Result: False

Task: For this molecule, is measured pIC50 6 or higher? CC(CO)Nc1nc(SCc2cccc(F)c2F)nc2oncc12 (stereo not drawn)
Result: True

Task: For this molecule, is measured pIC50 6 or higher? CCCC(C)CSc1nc(NC(C)CO)c2nn[nH]c2n1 (stereo not drawn)
Result: False

Task: I'd appreciate it if you could say whether CC(CO)Nc1nc(SCc2cccc(F)c2F)nc2[nH]cnc12 (stereo not drawn) has pIC50 at least equal to 6.
Result: False

----------
- target-of-assay: CXCR2 (Homo sapiens)
- Construct: expressed in transfected cells
- procedure-text: NanoBRET β-arrestin1 recruitment inhibition assay (NanoLux) in HEK293A cells
- Type: cell-based
- test-conditions: CXCL2 at EC80; mean, n = 3; read-out: IC50 βarr1
pIC50: −log10 of the molar value.
Think of 6 as a floor: if pIC50 stands on it or above, it is yes (1); beneath it, no (0).

Task: Determine whether this compound has pIC50 no lower than 6: CC(CO)Nc1nc(SCc2cccc(F)c2F)nc2oncc12 (stereo not drawn)
Result: yes (1)

Task: Check the entry CC(CO)Nc1nc(SCc2cccc(F)c2F)nc2cnccc12 (stereo not drawn) : does pIC50 equal or exceed 6?
Result: yes (1)

Task: Please check the record CC(CO)Nc1nc(SCc2cccc(F)c2F)nc2[nH]cnc12 (stereo not drawn) and state if its pIC50 is at or above 6.
Result: no (0)

----------
- target-of-assay: CXCR2 (Homo sapiens)
- Construct: expressed in transfected cells
- procedure-text: NanoBRET-based G protein activation inhibition assay (REGA-SIGN Gαi1 dissociation) in HEK293A.CXCR2 cells
- Type: cell-based
- test-conditions: CXCL5 at EC80; mean, n = 3
readout: pIC50
pIC50 field: float, defined as -log10 of concentration (mol/L).

Task: Using the record for CC(CCO)Nc1nc(SCc2cccc(F)c2F)nc2[nH]nnc12 (stereo not drawn) , state its measured pIC50.
Result: 4.88

Task: Return pIC50 (reported value) for this compound: CC(CO)Nc1nc(SCc2cccc(F)c2F)nc2cnccc12 (stereo not drawn)
Result: 4.99

Task: Using the record for CC(CO)Nc1nc(SCc2cccc(F)c2F)nc2oncc12 (stereo not drawn) , state its measured pIC50.
Result: 5.84

----------
- target-of-assay: CXCR2 (Homo sapiens, UniProt P25025)
- Construct: expressed in transfected cells
- procedure-text: NanoBRET β-arrestin1 recruitment inhibition assay (NanoLux) in HEK293A cells
- Assay type: cell-based
- test-conditions: CXCL5 at EC80; mean, n = 3; read-out: IC50 βarr1
Binary call on IC50 with cut-off 800 nM: strictly below means true (1), and equality or higher means false (0).

Task: Is IC50 strictly under 800 nM for the entry CC(CO)Nc1nc(SCc2cccc(F)c2F)nc2cnccc12 (stereo not drawn) [MVH-3] ?
Result: false (0)

Task: For this molecule, is IC50 lower than 800 nM? CC(CO)Nc1nc(SCc2cccc(F)c2F)nc2[nH]cnc12 (stereo not drawn) [MVH-15]
Result: false (0)

Task: Please determine if CC(CCO)Nc1nc(SCc2cccc(F)c2F)nc2[nH]nnc12 (stereo not drawn) [MVH-33] is below 800 nM in terms of IC50.
Result: false (0)

Task: A record lists CC(CO)Nc1nc(SCc2cccc(F)c2F)nc2oncc12 (stereo not drawn) [MVH-24] . Is its IC50 below 800 nM?
Result: true (1)

Task: Bench note: check whether CC(CO)Nc1nc(SCc2cccc(F)c2F)nc2ncsc12 (stereo not drawn) [MVH-22] shows IC50 below 800 nM
Result: false (0)

Task: Strictly below 800 nM in IC50? CCCC(C)CSc1nc(NC(C)CO)c2nn[nH]c2n1 (stereo not drawn) [MVH-82]
Result: false (0)
